src = PubChem BioAssay AID651819

tested on: cytosolic chaperonin (CCT/TRiC complex); assay: High-Throughput Screening for Modulators of Cytosolic Chaperonin Activity; conditions: purified chaperonin ATPase assay, HTRF ADP detection, 30 min; active compounds read low; further: on the % scale 0 is the no-effect control and ±100 the full control effect
The whole screen tested about 360,000 compounds, of which about 1,100 (0.31%) were called active. The list comes from a sample in which actives are over-represented; it also holds close analogues and randomly drawn compounds.
Here, each record is paired with measured activity change data.

- compound: "COC(=O)c1sccc1N/N=C(\\C)c1ccc(F)c(Cl)c1"
  system tested: "cytosolic chaperonin (CCT/TRiC complex)"
  units: "%"
  activity change: 0.343
- compound: "COc1ccc(-c2csc(NC(=O)c3ccc(N4C(=O)CCC4=O)cc3)n2)cc1OC"
  system tested: "cytosolic chaperonin (CCT/TRiC complex)"
  units: "%"
  activity change: -39.6
- compound: "CC12CN(Cc3ccccc3)CC(C)(CN(Cc3ccccc3)C1)C2=NO"
  system tested: "cytosolic chaperonin (CCT/TRiC complex)"
  units: "%"
  activity change: 1.91
- compound: "CN1CCN(c2ccncc2S(=O)(=O)N2CCCC2)CC1"
  system tested: "cytosolic chaperonin (CCT/TRiC complex)"
  units: "%"
  activity change: -0.238
- compound: "COc1ccc(C(CC(=O)Nc2ccc(C)cc2)NC(=O)C(F)(F)F)cc1 (stereo unspecified)"
  system tested: "cytosolic chaperonin (CCT/TRiC complex)"
  units: "%"
  activity change: 0.31
- compound: "Cc1ccccc1NC(=O)C(C)c1ccc(-c2ccccc2)c(F)c1 (stereo unspecified)"
  system tested: "cytosolic chaperonin (CCT/TRiC complex)"
  units: "%"
  activity change: -2.15
- compound: "O=C(NCCCN1CCCCCC1)C1CC(=O)N(C2CCCC2)C1 (stereo unspecified)"
  system tested: "cytosolic chaperonin (CCT/TRiC complex)"
  units: "%"
  activity change: -44.9
- compound: "COc1cc(NC(=O)c2ccc(-c3csc(C)n3)cc2)c(OC)cc1Cl"
  system tested: "cytosolic chaperonin (CCT/TRiC complex)"
  units: "%"
  activity change: -4.58
- compound: "Cc1ccc(CN2C(=O)CCC2C(=O)NCCCN2CCCCC2C)cc1 (stereo unspecified)"
  system tested: "cytosolic chaperonin (CCT/TRiC complex)"
  units: "%"
  activity change: 0.0456
- compound: "Cc1c(CN2CCC(CO)(CCOc3ccccc3)CC2)[nH]c2ccc(Cl)cc12"
  system tested: "cytosolic chaperonin (CCT/TRiC complex)"
  units: "%"
  activity change: -56
- compound: "CSc1nnc2c(n1)OC(c1cn(C)c3ccccc13)N(C(C)=O)c1ccccc1-2 (stereo unspecified)"
  system tested: "cytosolic chaperonin (CCT/TRiC complex)"
  units: "%"
  activity change: -0.161

###

System: cytosolic chaperonin (CCT/TRiC complex)
Experiment: High-Throughput Screening for Modulators of Cytosolic Chaperonin Activity; further: on the % scale 0 is the no-effect control and ±100 the full control effect
Conditions: purified chaperonin ATPase assay, HTRF ADP detection, 30 min; active compounds read low
Excerpt: The eukaryotic chaperonin named TRiC (for TCP-1 ring complex), also called CCT (for chaperonin containing TCP1), is an essential and conserved chaperone required for the folding and activation of 10-15% of the proteins encoded by the human genome. […] Despite its central role in cellular folding, little is known about TRiC mechanism and mode of substrate binding. Currently, no specific TRiC inhibitors are available. […]
About 1,100 (0.31%) of roughly 360,000 compounds were called active. For the sample, actives were picked, then their nearest neighbours and some compounds at random.

- compound: "COc1ccc2ccn(C)c2c1"
  activity change [%]: 1.51
- compound: "O=C(NNC(=O)c1cccc(S(=O)(=O)Nc2ccc(Cl)cc2)c1)c1ccc(=O)[nH]c1"
  activity change [%]: -0.309
- compound: "O=C1/C(=C\\c2cccnc2)CN(Cc2ccccc2)C/C1=C\\c1cccnc1"
  activity change [%]: -1.65
- compound: "O=C1NC(c2ccccc2)=NC1(Nc1ccccn1)C(F)(F)F (stereo not given)"
  activity change [%]: -1.42
- compound: "O=C(NCCCN1CCOCC1)c1cc(-c2ccccc2F)no1"
  activity change [%]: 1.6
- compound: "COc1ccc(Nc2cc(Sc3ccc(OC)cc3)ncn2)cc1"
  activity change [%]: -0.999
- compound: "CC(CO)(CO)NC(=O)c1ccc(=O)[nH]n1"
  activity change [%]: 1.59
- compound: "COC(=O)Nc1ncc(CN2C(=O)c3ccccc3C2=O)s1"
  activity change [%]: -0.4
- compound: "CC(C)(C)OC(=O)CNC(=O)c1[nH]cnc1C(=O)N[C@@H](CCCCN)C(=O)OC(C)(C)C"
  activity change [%]: 0.783
- compound: "CCOCCCN1C(=O)C2C(C(=O)Nc3ccc(OCC)cc3)C3C=CC2(O3)C1C(=O)NC1CCCCC1 (stereo not given)"
  activity change [%]: -2.83
- compound: "O=C(O)c1ccccc1-c1ccccc1C(=O)NCc1cccnc1"
  activity change [%]: -1.06
- compound: "CCCSc1nsc(N)n1"
  activity change [%]: -1.36
- compound: "CC(C)N1C(=O)C2C(C(=O)NC3CCCCC3)C3C=CC2(O3)C1C(=O)NC1CCCC1 (stereo not given)"
  activity change [%]: -2.56
- compound: "O=C(Nc1ccccc1-c1nnn(CC(=O)N2CCCc3ccccc32)n1)c1cccc(Cl)c1"
  activity change [%]: -0.628
- compound: "CNC[C@H](CC1CCCCC1)NC[C@H](NCCC1CCCC1)[C@H](C)O"
  activity change [%]: -0.857
- compound: "COc1cccc(C(NC(C)=O)c2nc(-c3cnc4ccccc4c3)cs2)c1 (stereo not given)"
  activity change [%]: 0.873
- compound: "O=C(NCc1ccco1)C1CCCN(S(=O)(=O)c2cccc3nonc23)C1 (stereo not given)"
  activity change [%]: -0.959
- compound: "COC(=O)c1ccc(Nc2ncnc3sccc23)cc1"
  activity change [%]: -2.64
- compound: "Cc1nc2nc3c(cn2n1)C(=O)CC(c1ccccc1)C3 (stereo not given)"
  activity change [%]: -0.882
- compound: "COc1ccc(N2C(=O)CCC(C(=O)N(C)C3CCCCC3)C2c2ccc(OC)c(OC)c2)cc1 (stereo not given)"
  activity change [%]: -0.957
- compound: "CC1(C(=O)Nc2cccc3cccnc23)CCN1C(=O)CCC1CCCC1 (stereo not given)"
  activity change [%]: 1.06
- compound: "CC(C)c1cccc(-c2csc(C(O)c3ccccc3)n2)c1 (stereo not given)"
  activity change [%]: -0.363
- compound: "CN(c1ccccc1)S(=O)(=O)c1ccc(C(=O)NCc2cccnc2)cc1"
  activity change [%]: 0.104
- compound: "CN(C(=O)c1cccc(OC2CCN(S(=O)(=O)N(C)C)CC2)c1)C1CCOC1 (stereo not given)"
  activity change [%]: -4.71
- compound: "Cc1cc(C(F)F)nn1CC(=O)NC1CCCCCC1"
  activity change [%]: -0.636
- compound: "COc1ccc(N)c(C)c1"
  activity change [%]: -0.166
- compound: "OC(c1ccccc1)c1nc(-c2cnc3ccccc3c2)cs1 (stereo not given)"
  activity change [%]: -40.1
- compound: "Cc1nn(CC(=O)NC2CCCCC2)c(=O)c2cccn12"
  activity change [%]: 0.008
- compound: "CC(=O)c1cc2c(cc1NC(=O)Cn1nc(-c3ccc(F)cc3)ccc1=O)OCO2"
  activity change [%]: -31.8
- compound: "COC(=O)[C@@H](NC(=O)NCc1cccc(OC)c1)C(C)C"
  activity change [%]: -2.29
- compound: "CCOc1c2ccc(C(=O)NC3CCCc4ccccc43)cc2nn1CC (stereo not given)"
  activity change [%]: -6.07
- compound: "CN(C)C(=O)CCc1ccc2c3c([nH]c2c1)[C@]1(CCC2CCCC2)[C@@H](C(=O)N2CCOCC2)C[C@H](CC(=O)NCc2ccco2)C(=O)N1CC3"
  activity change [%]: 0.536
- compound: "Cn1nc([N+](=O)[O-])nc1Sc1ccc(C(C)(C)C)cc1"
  activity change [%]: -4.31
- compound: "O=C(CC(n1cncn1)C(Cl)(Cl)Cl)c1ccc([N+](=O)[O-])cc1 (stereo not given)"
  activity change [%]: -37.2
- compound: "C=CS(=O)c1sc(Cl)c(N2CCOCC2)c1[N+](=O)[O-] (stereo not given)"
  activity change [%]: -1.53
- compound: "O=C(CSC1=NS(=O)(=O)c2cc(F)ccc2N1)Nc1ccccc1F"
  activity change [%]: 0.641
- compound: "Cc1ccc(C)c(N2CCN(C(=O)CCCCCn3c(=S)[nH]c4ccc(N5CCOCC5)cc4c3=O)CC2)c1"
  activity change [%]: 1.65
- compound: "O=C(NCCCN1CCOCC1)c1ccc2c(c1)N(Cc1cccc(F)c1)C(=O)c1ccccc1S2"
  activity change [%]: -77.1
- compound: "COc1ccc2c(C)cc3nnnn3c2c1"
  activity change [%]: -38.8
- compound: "CS(=O)(=O)N(Cc1nc2sc3c(c2c(=O)[nH]1)CCCC3)C1CCCCC1"
  activity change [%]: -3.6
- compound: "CSc1nc2ccccc2cc1/C=C(\\C#N)c1ccc(Cl)cc1Cl"
  activity change [%]: 2.8
- compound: "Cn1c(=O)c(=O)n(C)c2cc(S(=O)(=O)NCCc3ccccc3)ccc21"
  activity change [%]: -5.22
- compound: "O=C(CCn1nnc2ccccc21)OCC(=O)c1ccc([N+](=O)[O-])cc1"
  activity change [%]: 1.01
- compound: "CCN(CC)CCN1C(=O)C2C(C(=O)Nc3ccc(Br)cc3)C3C=CC2(O3)C1C(=O)NC1CCCCC1 (stereo not given)"
  activity change [%]: -40.8
- compound: "O=C(NCc1cccnc1)c1cnc2ccccc2n1"
  activity change [%]: -37.4
